assay.details: Biodistribution in ICR mice after an iv injection
Assay type: in vivo
test.context: Muscle, 2 hr after iv injection
Kindly supply the reported % dose/g values for the records listed here.

Prompt: Quick one: % dose/g of CNc1ccc(-c2ccc3nc(OCCOCCOCC[18F])ccc3c2)cc1 [[^18F]34a] ?
Completion: 0.98 ± 0.08 % dose/g

Prompt: Quick one: % dose/g of CN(C)c1ccc(-c2ccc3nc(OCCOCCOCC[18F])ccc3c2)cc1 [[^18F]32a] ?
Completion: 0.81 ± 0.14 % dose/g

Prompt: Quick one: % dose/g of CNc1ccc2cc(-c3ccc(OCCOCCOCC[18F])cc3)ccc2c1 [[^18F]19a] ?
Completion: 0.62 ± 0.11 % dose/g

Prompt: Quick one: % dose/g of CNc1ccc(-c2ccc3cc(OCCOCCOCCF)ccc3c2)cc1 ?
Completion: 0.97 ± 0.06 % dose/g

Reference source: patent US20100215579A1
